COMPOUND	melting point
Oc1ccc(Br)cc1C1=Nc2ccccc2SC(c2ccc(Cl)cc2)C1 (stereo not drawn) [Compound 2c]	167 to 172 °C
Oc1ccc(Br)cc1C1=Nc2ccccc2SC(c2ccc(F)cc2)C1 (stereo not drawn) [Compound 2b]	128 to 134 °C
COc1cccc(C2CC(c3cc(Br)ccc3O)=Nc3ccccc3S2)c1 (stereo not drawn) [Compound 2d]	161 to 167 °C
Oc1ccc(Br)cc1C1=Nc2ccccc2SC(c2ccccc2)C1 (stereo not drawn) [Compound 2a]	128 to 137 °C
CC(C)c1ccc(C2CC(c3cc(Br)ccc3O)=Nc3ccccc3S2)cc1 (stereo not drawn) [Compound 2f]	126 to 131 °C
COc1ccc(C2CC(c3cc(Br)ccc3O)=Nc3ccccc3S2)cc1 (stereo not drawn) [Compound 2e]	131 to 136 °C

* * *

Here the recorded IC50 is given for each entry.
- SYSTEM_TESTED: α-amylase
- PROTOCOL_DESCRIPTION: In vitro α-amylase inhibitory assay (CNP-G3 substrate)
- Format: biochemical
- RECORDED_CONDITIONS: three independent experiments; acarbose positive control; read-out: IC50 Values (µM ± SD) α-Amylase
MEASURED_ATTRIBUTE: IC50

MOLECULE	MEASURED_ATTRIBUTE	READING
COc1cccc(C2CC(c3cc(Br)ccc3O)=Nc3ccccc3S2)c1 (stereo not drawn)	IC50	46.2 µM
CC(C)c1ccc(C2CC(c3cc(Br)ccc3O)=Nc3ccccc3S2)cc1 (stereo not drawn)	IC50	9.71 µM
Oc1ccc(Br)cc1C1=Nc2ccccc2SC(c2ccc(F)cc2)C1 (stereo not drawn)	IC50	15.8 µM
COc1ccc(C2CC(c3cc(Br)ccc3O)=Nc3ccccc3S2)cc1 (stereo not drawn)	IC50	55.1 µM
Oc1ccc(Br)cc1C1=Nc2ccccc2SC(c2ccccc2)C1 (stereo not drawn)	IC50	20.9 µM
Oc1ccc(Br)cc1C1=Nc2ccccc2SC(c2ccc(Cl)cc2)C1 (stereo not drawn)	IC50	22.9 µM

* * *

- SYSTEM_TESTED: α-glucosidase
- PROTOCOL_DESCRIPTION: In vitro α-glucosidase inhibitory assay (PNP-G substrate)
- Format: biochemical
- RECORDED_CONDITIONS: three independent experiments; acarbose positive control; read-out: IC50 Values (µM ± SD) α-Glucosidase
Measured IC50 of individual entries

COMPOUND	IC50 (µM)
Oc1ccc(Br)cc1C1=Nc2ccccc2SC(c2ccc(Cl)cc2)C1 (stereo not drawn) [Compound 2c]	2.69
COc1cccc(C2CC(c3cc(Br)ccc3O)=Nc3ccccc3S2)c1 (stereo not drawn) [Compound 2d]	13.2
Oc1ccc(Br)cc1C1=Nc2ccccc2SC(c2ccc(F)cc2)C1 (stereo not drawn) [Compound 2b]	17.2
CC(C)c1ccc(C2CC(c3cc(Br)ccc3O)=Nc3ccccc3S2)cc1 (stereo not drawn) [Compound 2f]	6.54
Oc1ccc(Br)cc1C1=Nc2ccccc2SC(c2ccccc2)C1 (stereo not drawn) [Compound 2a]	6.7
COc1ccc(C2CC(c3cc(Br)ccc3O)=Nc3ccccc3S2)cc1 (stereo not drawn) [Compound 2e]	15.9

* * *

- System: α-glucosidase
- PROTOCOL_DESCRIPTION: In vitro α-glucosidase inhibitory assay (PNP-G substrate)
- Assay type: biochemical
- RECORDED_CONDITIONS: SI = IC50(α-glucosidase)/IC50(α-amylase)

COMPOUND	SI (selectivity index)
COc1ccc(C2CC(c3cc(Br)ccc3O)=Nc3ccccc3S2)cc1 (centres unmarked) [Compound 2e]	0.29
Oc1ccc(Br)cc1C1=Nc2ccccc2SC(c2ccc(F)cc2)C1 (centres unmarked) [Compound 2b]	1.09
COc1cccc(C2CC(c3cc(Br)ccc3O)=Nc3ccccc3S2)c1 (centres unmarked) [Compound 2d]	0.29
CC(C)c1ccc(C2CC(c3cc(Br)ccc3O)=Nc3ccccc3S2)cc1 (centres unmarked) [Compound 2f]	0.67
Oc1ccc(Br)cc1C1=Nc2ccccc2SC(c2ccc(Cl)cc2)C1 (centres unmarked) [Compound 2c]	0.12

The measured values listed here are drawn from paper PMC9607343.
